Here is a set of compounds with reported pIC50 for Acyl-CoA: Cholesterol Acyltransferase (ACAT) (Rattus norvegicus, UniProt Q7TQM4), compiled from the literature.
pIC50: −log10 of the molar value.
If the reported pIC50 equals or exceeds 5, assign true. If not, assign false.

Please review the following examples before continuing.
In [3]: df
Out[3]:
                                   compound                             system_tested  group_label
0  CC(C)c1ccc2c(c1)c(-c1ccccc1Cl)c(NC(=O)Nc1ccc(F)cc1F)c(=O)n2C  Acyl-CoA: Cholesterol Acyltransferase (ACAT) (Rattus norvegicus, UniProt Q7TQM4)         true
1  COc1ccc(CSC(C(=O)Nc2c(SC)cc(C)nc2SC)c2ccc(F)cc2)cc1 (stereo not shown)  Acyl-CoA: Cholesterol Acyltransferase (ACAT) (Rattus norvegicus, UniProt Q7TQM4)         true
2  CCCCOc1ccc(CSC(C(=O)Nc2c(SC)cc(C)nc2SC)c2ccc(C(C)C)cc2)cc1 (stereo not shown)  Acyl-CoA: Cholesterol Acyltransferase (ACAT) (Rattus norvegicus, UniProt Q7TQM4)         true

Task: Tell me whether pIC50 is at least 5 here: CCCCCCCCCCCCn1nnc(C(C(=O)Nc2c(C(C)C)cccc2C(C)C)n2ccnc2)n1 (racemic)
Result: true

Task: Hi, just wondering whether `CC(C)c1cc(C(C)C)c(CC(=O)NS(=O)(=O)Oc2c(C(C)C)cc(NC(=O)Nc3c(C(C)C)cccc3C(C)C)cc2C(C)C)c(C(C)C)c1` shows pIC50 of 5 or higher.
Result: false

Task: Is it the case that `CC(C)c1cc(C(C)C)c(CC(=O)NS(=O)(=O)Oc2c(C(C)C)cc(C=CC#N)cc2C(C)C)c(C(C)C)c1` has pIC50 reaching or exceeding 5?
Result: false
